molecular target: GCK (Homo sapiens, UniProt Q12851); assay: Inhibitory activity against GCK kinase (IC50); type: biochemical
Sequence (Q12851 whole entry): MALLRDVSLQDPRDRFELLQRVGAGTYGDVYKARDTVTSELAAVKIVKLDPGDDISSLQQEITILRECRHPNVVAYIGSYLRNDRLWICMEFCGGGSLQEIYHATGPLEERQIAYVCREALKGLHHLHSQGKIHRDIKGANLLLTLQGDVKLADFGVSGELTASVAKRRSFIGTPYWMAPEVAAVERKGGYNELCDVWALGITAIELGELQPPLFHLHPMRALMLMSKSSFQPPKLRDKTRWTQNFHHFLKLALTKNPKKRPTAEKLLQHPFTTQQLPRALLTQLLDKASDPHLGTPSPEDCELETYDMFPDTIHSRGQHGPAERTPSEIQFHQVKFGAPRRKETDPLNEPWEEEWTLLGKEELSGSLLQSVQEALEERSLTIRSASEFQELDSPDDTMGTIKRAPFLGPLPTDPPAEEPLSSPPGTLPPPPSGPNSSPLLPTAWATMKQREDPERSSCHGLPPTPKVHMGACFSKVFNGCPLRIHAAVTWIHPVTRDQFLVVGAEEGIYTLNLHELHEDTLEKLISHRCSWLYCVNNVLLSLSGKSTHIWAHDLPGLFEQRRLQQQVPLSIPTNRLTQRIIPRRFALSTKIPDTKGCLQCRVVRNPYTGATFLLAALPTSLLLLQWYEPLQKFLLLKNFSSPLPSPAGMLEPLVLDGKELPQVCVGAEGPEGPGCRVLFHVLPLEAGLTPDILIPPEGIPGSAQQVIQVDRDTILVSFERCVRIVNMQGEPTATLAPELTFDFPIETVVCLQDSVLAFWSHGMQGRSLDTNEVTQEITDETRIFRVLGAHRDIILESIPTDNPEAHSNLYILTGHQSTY
READOUT_LABEL: IC50

{"columns": ["ITEM_SMILES", "READOUT_LABEL", "MEASUREMENT"],
 "data": [
  ["Cc1ccc(NC(=O)c2cccc(C(F)(F)F)c2)cc1-c1cc2cnc(N)nc2c(=O)[nH]1", "IC50", "1 to 10 µM"]
]}

The values you see were collected from patent US20260070903A1.
